Target: T1, human Trop-2-His protein (human, UniProt P09758 27-274)
T1 construct: extracellular domain; Assay paragraphs say only 'Trop-2-His'; also called hTrop-2; Kactus Cat #TRP-HM121; not shown: His tag
T1 sequence (looked up): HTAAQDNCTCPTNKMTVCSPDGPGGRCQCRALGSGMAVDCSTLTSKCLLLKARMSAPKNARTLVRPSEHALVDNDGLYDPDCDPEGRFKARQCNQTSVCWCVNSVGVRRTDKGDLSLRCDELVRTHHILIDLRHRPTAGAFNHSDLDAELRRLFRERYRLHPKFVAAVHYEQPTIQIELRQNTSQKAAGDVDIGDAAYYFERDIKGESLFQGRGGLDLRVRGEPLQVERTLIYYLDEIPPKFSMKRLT
Experiment: BLI (Gator Prime), LEM supernatant Ab on HFC probe
Reported values of koff for individual entries

{"columns": ["binder", "koff"],
 "data": [
  ["10D3 (antibody, V domains shown, Rabbit-derived clone; LEM construct: VH + rabbit IgG CH1 + human IgG1 CH2-CH3) VH: QSLEESGGDLVQPGASLTLTCKAAGFDLNNYSMLWVRQAPGKGLEWIGCIYISGGTTYYASWAKGRFTISKTSSTTVTLQMTSLTAADTATYFCARDDGSTSYYLNLWGPGTLVTVSS VL: YDMTQTPASVSEPVGGTVTIKCQASEDIYRLLAWYQQKPGQPPKLLIYDASDLASGVPSRFKGSGSGTEYTLTISGLQCADAATYYCQQGYTIGNIDNSFGGGTEVVVK", "0.00019 s⁻¹"],
  ["9D7 (antibody, V domains shown, Rabbit-derived clone; LEM construct: VH + rabbit IgG CH1 + human IgG1 CH2-CH3) VH: QSLEESGGDLVQPGASLTLTCKASGFDLNNYSILWVRQAPGKGLEWIGCIYISGGSTYYANWAKGRFAISKTSSTTVTLQMTSLTAADTATYFCARDDGTASYYLNLWGPGTLVTVSS VL: YDMTQTPASVSEPVGGTVTIKCQASEDIYKLLAWYQQKPGQPPKLLIYAASDLESGVPSRFKGRGSGTDYTLTISDLECADAATYYCQQAYTIGNIDNSFGGGTEVVVK", "3.9e-05 s⁻¹"]
]}

Now look at this entry.
Consider the binder shown here: 5D4 (antibody, V domains shown, Rabbit-derived clone; LEM construct: VH + rabbit IgG CH1 + human IgG1 CH2-CH3) VH: QQLEESGGGLVKPEGSLTLTCKGSGFDFSGTYWMWWVRQAPGKGLEWIACIYVGSGSSTYYASWAKGRFTISSTSSTAVTLQATSLTAADTATYFCARGATNNVFMNYFNLWGPGTLVTVSS VL: FEMTQTPSSVSEPVGGTVTIKCQASEDISSNLGWYQQKPGQPPKLLIYGASTLASGVPSRFKGSGSGTEFTLTISDLECADAATYYCQTSYYIDDGVNGFGGGTEVVVK What is its recorded koff? 0.0001 s⁻¹

These measurements were taken from patent US20250206841A1.
